This listing pairs molecules with measured pIC50.
tgt: CCK receptor (brain) (Cavia porcellus, UniProt H0VZC5)
Sequence (H0VZC5 1-426): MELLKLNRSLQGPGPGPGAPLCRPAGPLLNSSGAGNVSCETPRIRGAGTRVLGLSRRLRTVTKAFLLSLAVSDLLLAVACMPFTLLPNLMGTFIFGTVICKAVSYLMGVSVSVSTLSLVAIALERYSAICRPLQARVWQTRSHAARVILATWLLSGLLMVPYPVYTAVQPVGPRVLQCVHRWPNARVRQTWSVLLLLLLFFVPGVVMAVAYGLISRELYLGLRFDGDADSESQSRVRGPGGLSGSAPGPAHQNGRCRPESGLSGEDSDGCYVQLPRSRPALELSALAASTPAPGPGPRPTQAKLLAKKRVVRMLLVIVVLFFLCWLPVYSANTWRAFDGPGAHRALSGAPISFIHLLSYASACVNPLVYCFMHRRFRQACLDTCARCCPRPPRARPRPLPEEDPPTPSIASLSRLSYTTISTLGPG
Friendly reminder that pIC50 comes from taking -log10 of the concentration in mol/L.

molecule: CN1C(=O)[C@H](NC(=O)Nc2cccc(C[C@H](N)C(=O)O)c2)N=C(c2ccccc2)c2ccccc21
tgt: CCK receptor (brain) (Cavia porcellus, UniProt H0VZC5)
observed.property: pIC50
observed.measurement: 7.21
--
molecule: COC(=O)C1(NC(=O)OC(C)(C)C)CCc2c(cccc2NC(=O)N[C@@H]2N=C(c3ccccc3)c3ccccc3N(C)C2=O)C1 (stereo partly shown)
tgt: CCK receptor (brain) (Cavia porcellus, UniProt H0VZC5)
observed.property: pIC50
observed.measurement: 5.77
--
molecule: COC(=O)[C@@H](N)Cc1cccc(NC(=O)N[C@@H]2N=C(c3ccccc3)c3ccccc3N(C)C2=O)c1
tgt: CCK receptor (brain) (Cavia porcellus, UniProt H0VZC5)
observed.property: pIC50
observed.measurement: 6.94
--
molecule: COC(=O)[C@H](Cc1cccc(NC(=O)N[C@@H]2N=C(C3CCCCC3)c3ccccc3N(C)C2=O)c1)NC(=O)OC(C)(C)C
tgt: CCK receptor (brain) (Cavia porcellus, UniProt H0VZC5)
observed.property: pIC50
observed.measurement: 8.41
--
molecule: COC(=O)[C@@H](N)c1cccc(NC(=O)N[C@@H]2N=C(c3ccccc3)c3ccccc3N(C)C2=O)c1
tgt: CCK receptor (brain) (Cavia porcellus, UniProt H0VZC5)
observed.property: pIC50
observed.measurement: 6.02

Task item: Item: COC(=O)C1(NC(=O)OC(C)(C)C)CCc2ccc(NC(=O)N[C@@H]3N=C(c4ccccc4)c4ccccc4N(C)C3=O)cc2C1 (stereo partly shown) Test system: CCK receptor (brain) (Cavia porcellus, UniProt H0VZC5) Read-out: pIC50 Value: ?
Reply: 6.90

Task item: Queued: COC(=O)C1(N)CCc2c(cccc2NC(=O)N[C@@H]2N=C(c3ccccc3)c3ccccc3N(C)C2=O)C1 (stereo partly shown)
Reply: 5.67

Numbers sourced from patent US5378838A.
